- STUDY_SYSTEM: T1, interleukin-2 alpha receptor (SYMANSIS, #4102H) to which a human immunoglobulin Fc region was linked (UniProt P01589 22-213, limits assumed)
- T1 construct: Bought receptor-Fc, captured on anti-human immunoglobulin antibody; also called IL-2Rα; CD25; not shown: human immunoglobulin Fc region
- T1 sequence (looked up): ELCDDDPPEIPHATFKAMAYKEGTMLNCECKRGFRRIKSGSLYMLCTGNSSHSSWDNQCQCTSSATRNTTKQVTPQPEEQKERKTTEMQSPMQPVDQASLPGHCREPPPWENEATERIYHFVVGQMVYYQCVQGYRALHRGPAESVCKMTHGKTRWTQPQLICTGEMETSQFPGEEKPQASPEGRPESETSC
- PROTOCOL_DESCRIPTION: SPR (Biacore T200); receptor-Fc captured on anti-human Ig CM5 chip, analog flowed; relative to analog 1 = 100%
READOUT: Relative binding affinity (%)

Here are 2 binders together with their reported answers.
[
  {
    "BINDER": "interleukin-2 analog 96 (ligand) PTSSSTKKTQLQLEHLLLDLQMILNGINNYKNPKLTRMLTFKFYMPKKATELKHLQCLEEELKPLEEGLNLAASKNFHFEPRDVVSNINVFVLELKGSETTFMCEYADETATIVEFLNRWITFSQSIISTLT",
    "UOM": "%",
    "RESULT_NUMBER": 14.9
  },
  {
    "BINDER": "interleukin-2 analog 13 (ligand) PTSSSTKKTQLQLEHLLLDLQMILNGINNYKNPKLTAMLTAKFYMPKKATELKHLQCLEEELKPLEEVLNLAQSKNFHLRPRDLISNINVIVLELKGSETTFMCEYADETATIVEFLNRWITFSQSIISTLT",
    "UOM": "%",
    "RESULT_NUMBER": 1.1
  }
]

(1) interleukin-2 analog 103 (ligand) PTSSSTKKTQLQLEHLRLDLEMILNGINNYKNPKLTAMLTFKFYMPKKATELKHLQCLEEELKPLEEVLNLAQSKNFHFEPRDVVSNINVFVLELKGSETTFMCEYADETATIVEFLNRWITFSQSIISTLT
(2) interleukin-2 analog 17 (ligand) PTSSSTKKTQLQLEHLLLDLQMILNGINNYKNPKLTAMLTKKFYMPKKATELKHLQCLEEELKPLEEVLNLAQSKNFHLRPRDLISNINTIVLELKGSETTFMCEYADETATIVEFLNRWITFSQSIISTLT
Lower Relative binding affinity (%): 1 or 2 ? Let me know the label of the one you choose.
1
(1: 6.1%, 2: 29.6%)
